Species on record: Rattus norvegicus
method.notes: Metabolic stability in rat brain membrane assessed by inhibition of AEA hydrolysis
Type: ADME
experimental.context: Rattus norvegicus, Brain; read-out: IC50
pIC50: −log10 of the molar value.
Give measured pIC50 for each item. Keep answers brief.

q: Fill in the blank: the reported pIC50 of "CCCCCCCCCCCCCCCC(=O)N(O)CCO" is ____.
a: < 4.30

q: Fill in the blank: the reported pIC50 of CCCCCCCC/C=C\CCCCCCCC(=O)NCCO [OLEOYLETHANOLAMIDE] is ____.
a: 4.64

q: Fill in the blank: the reported pIC50 of "CCCCCCCC/C=C\CCCCCCCC(=O)ONCCO" is ____.
a: < 4.30

q: Fill in the blank: the reported pIC50 of "CCCCCCCCCCCCCCCC(=O)NOCCO" is ____.
a: < 4.30

q: Fill in the blank: the reported pIC50 of "CCCCCCCC/C=C\CCCCCCCC(=O)N(O)CCO" is ____.
a: < 4.30

q: Fill in the blank: the reported pIC50 of CCCCC/C=C\C/C=C\C/C=C\C/C=C\CCCC(=O)NCCO [ANANDAMIDE] is ____.
a: 4.72

q: Fill in the blank: the reported pIC50 of "CCCCCCCCCCCCCCCC(=O)ONCCO" is ____.
a: < 4.30

q: Fill in the blank: the reported pIC50 of "CCCCCCCC/C=C\CCCCCCCC(=O)NOCCO" is ____.
a: < 4.30

q: Fill in the blank: the reported pIC50 of "CCCCC/C=C\C/C=C\C/C=C\C/C=C\CCCC(=O)N(O)CCO" is ____.
a: < 4.30

q: Fill in the blank: the reported pIC50 of "CCCCC/C=C\C/C=C\C/C=C\C/C=C\CCCC(=O)ONCCO" is ____.
a: < 4.30

q: Fill in the blank: the reported pIC50 of "CCCCC/C=C\C/C=C\C/C=C\C/C=C\CCCC(=O)NOCCO" is ____.
a: 4.60
